- System under test: 11β-HSD1 (Homo sapiens, UniProt P28845)
- Construct: detecting cortisol generated from cortisterone by human liver microsomes; from tissue; host or cells: human liver microsomes
- Sequence (P28845 whole entry): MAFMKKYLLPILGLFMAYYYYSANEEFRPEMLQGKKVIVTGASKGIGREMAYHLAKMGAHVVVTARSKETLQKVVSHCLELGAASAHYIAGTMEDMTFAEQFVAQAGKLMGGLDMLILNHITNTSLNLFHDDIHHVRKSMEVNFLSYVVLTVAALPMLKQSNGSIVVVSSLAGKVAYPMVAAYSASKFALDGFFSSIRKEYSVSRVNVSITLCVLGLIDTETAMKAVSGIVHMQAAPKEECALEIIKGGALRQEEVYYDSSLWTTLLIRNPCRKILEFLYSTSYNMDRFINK
- Test: In vitro inhibition of 11β-HSD1, HTRF detection of cortisol generated by human liver microsomes
- Type: biochemical
- Experimental setup: compound concentration 1 μM, 100% indicates no inhibition, zero or below zero indicates complete inhibition, cortisone 80 nM, 1 hour at 37° C., read-out: % CTL at 1 μM
Some molecules, each annotated with its measured remaining activity at 1 µM.
Return type: number; implicit unit %.

{"Molecule": "CC(C)(O)[C@@H]1CCCN(C(=O)N2CC[C@@]3(C)c4ccccc4C[C@@H]2C3(C)C)C1", "Units of measure": "%", "remaining activity at 1 µM": -16}
{"Molecule": "Cc1ccc2c(c1)CCCN2C(=O)N1CC[C@@]2(C)c3cccc(O)c3C[C@@H]1C2(C)C", "Units of measure": "%", "remaining activity at 1 µM": -18}
{"Molecule": "CC1(C)[C@H]2Cc3c(OCc4ccccc4)cccc3[C@]1(C)CCN2C(=O)N1CCCCC1", "Units of measure": "%", "remaining activity at 1 µM": 82}
{"Molecule": "CC1(C)[C@H]2Cc3c(O)cccc3[C@]1(C)CCN2C(=O)N1Cc2ccccc2C1", "Units of measure": "%", "remaining activity at 1 µM": 53}
{"Molecule": "CC1(C)[C@H]2Cc3ccccc3[C@]1(C)CCN2C(=O)N1CCCC2(CCCNC2=O)C1 (some centres unmarked)", "Units of measure": "%", "remaining activity at 1 µM": -19}
{"Molecule": "CC1(C)[C@H]2Cc3c(O)cccc3[C@]1(C)CCN2C(=O)N1CCn2cnnc2C1", "Units of measure": "%", "remaining activity at 1 µM": 94}
{"Molecule": "CC1(C)[C@H]2Cc3c(O)cccc3[C@]1(C)CCN2C(=O)N1C2CCCC1CC(O)C2 (some centres unmarked)", "Units of measure": "%", "remaining activity at 1 µM": -17}
{"Molecule": "CCOC(=O)C1CCCN(C(=O)N2CC[C@@]3(C)c4ccccc4C[C@@H]2C3(C)C)C1 (some centres unmarked)", "Units of measure": "%", "remaining activity at 1 µM": 47}
{"Molecule": "CC1(C)[C@H]2Cc3c(O)cccc3[C@]1(C)CCN2C(=O)N1CCC(O)C1 (some centres unmarked)", "Units of measure": "%", "remaining activity at 1 µM": 30}
{"Molecule": "CC(C)(O)[C@H]1CCCN(C(=O)N2CC[C@@]3(C)c4ccccc4C[C@@H]2C3(C)C)C1", "Units of measure": "%", "remaining activity at 1 µM": 6}

Now for the molecule whose remaining activity at 1 µM we want.
Fill blank: measured remaining activity at 1 µM of the molecule CC1(C)[C@H]2Cc3c(O)cccc3[C@]1(C)CCN2C(=O)N1CCCC(O)CC1 (some centres unmarked) is ____.
-41

* * *

Some molecules, each annotated with its measured remaining activity at 1 µM.
- System under test: 11β-HSD1 (Homo sapiens, UniProt P28845)
- Construct: detecting cortisol generated from cortisterone by human liver microsomes; from tissue; host or cells: human liver microsomes
- Test: In vitro inhibition of 11β-HSD1, HTRF detection of cortisol generated by human liver microsomes
- Type: biochemical
- Experimental setup: compound concentration 1 μM, 100% indicates no inhibition, zero or below zero indicates complete inhibition, cortisone 80 nM, 1 hour at 37° C., read-out: % CTL at 1 μM
Return type: number; implicit unit %.

{"Molecule": "CC1(C)[C@H]2Cc3c(O)cccc3[C@]1(C)CCN2C(=O)N1CCCC1 [Example 2]", "System under test": "11β-HSD1 (Homo sapiens, UniProt P28845)", "Units of measure": "%", "Numeric readout": 18}
{"Molecule": "CC1(C)[C@H]2Cc3c(O)cccc3[C@]1(C)CCN2C(=O)N1CCc2cc(O)ccc21 [Example 53]", "System under test": "11β-HSD1 (Homo sapiens, UniProt P28845)", "Units of measure": "%", "Numeric readout": 7}
{"Molecule": "CC1(C)[C@H]2Cc3c(O)cccc3[C@]1(C)CCN2C(=O)N1CCCC(C(=O)Nc2ccccc2)C1 (some centres unmarked) [Example 42]", "System under test": "11β-HSD1 (Homo sapiens, UniProt P28845)", "Units of measure": "%", "Numeric readout": 32}

Fill blank: measured remaining activity at 1 µM of the molecule COC1CCN(C(=O)N2CC[C@@]3(C)c4cccc(O)c4C[C@@H]2C3(C)C)CC1 [Example 12] is ____.
-39

Fill blank: measured remaining activity at 1 µM of the molecule CC1(C)[C@H]2Cc3c(O)cccc3[C@]1(C)CCN2C(=O)N1CC(O)C1 [Example 24] is ____.
70

Fill blank: measured remaining activity at 1 µM of the molecule CC(C)(C)C1COc2ccccc2N1C(=O)N1CC[C@@]2(C)c3cccc(O)c3C[C@@H]1C2(C)C (some centres unmarked) [Example 51] is ____.
94

Fill blank: measured remaining activity at 1 µM of the molecule COc1cccc2c1C[C@H]1N(C(=O)N3CCCCC3)CC[C@]2(C)C1(C)C [Example 31] is ____.
-6

Fill blank: measured remaining activity at 1 µM of the molecule CC1(C)[C@H]2Cc3c(O)cccc3[C@]1(C)CCN2C(=O)N1CCOCC1 [Example 3] is ____.
84

Fill blank: measured remaining activity at 1 µM of the molecule CC(C)(O)C1CCN(C(=O)N2CC[C@@]3(C)c4ccccc4C[C@@H]2C3(C)C)CC1 [Example 65] is ____.
2

Fill blank: measured remaining activity at 1 µM of the molecule CC1(C)[C@H]2Cc3c(O)cccc3[C@]1(C)CCN2C(=O)N1CCC(O)(CO)CC1 [Example 37] is ____.
-7

Fill blank: measured remaining activity at 1 µM of the molecule CC1(C)[C@H]2Cc3c(O)cccc3[C@]1(C)CCN2C(=O)N1CCCC2(CCCNC2=O)C1 (some centres unmarked) [Example 43] is ____.
-45

Fill blank: measured remaining activity at 1 µM of the molecule CC1(C)[C@H]2Cc3ccccc3[C@]1(C)CCN2C(=O)N1CCC[C@@H](CO)C1 [Example 71] is ____.
-18

Fill blank: measured remaining activity at 1 µM of the molecule CC1(C)[C@H]2Cc3c(O)cccc3[C@]1(C)CCN2C(=O)N1CCc2nc[nH]c2C1 [Example 15] is ____.
14

Fill blank: measured remaining activity at 1 µM of the molecule CC1(C)[C@H]2Cc3c(O)cccc3[C@]1(C)CCN2C(=O)N1CCCC(C(N)=O)C1 (some centres unmarked) [Example 41] is ____.
-56

Fill blank: measured remaining activity at 1 µM of the molecule CC1CCN(C(=O)N2CC[C@@]3(C)c4cccc(O)c4C[C@@H]2C3(C)C)CC1 [Example 9] is ____.
-14

Fill blank: measured remaining activity at 1 µM of the molecule CC1(C)[C@H]2Cc3ccccc3[C@]1(C)CCN2C(=O)N1CCOCC1c1ccccc1 (some centres unmarked) [Example 68] is ____.
87

Fill blank: measured remaining activity at 1 µM of the molecule CC1(C)[C@H]2Cc3c(O)cccc3[C@]1(C)CCN2C(=O)N1CCCC(O)C1 (some centres unmarked) [Example 23] is ____.
-9

Fill blank: measured remaining activity at 1 µM of the molecule CC1(C)[C@H]2Cc3ccccc3[C@]1(C)CCN2C(=O)N1CCC(O)(C(F)(F)F)CC1 [Example 72] is ____.
-11

Fill blank: measured remaining activity at 1 µM of the molecule CC1(C)[C@H]2Cc3c(O)cccc3[C@]1(C)CCN2C(=O)N1CCCc2ccccc21 [Example 16] is ____.
-41
